- protocol: AUC (0 to infinity) in neutropenic BALB/cAnNCr mouse infected with Staphylococcus aureus at 2.5 mg/kg, sc administered as single dose after 6 hrs of infection
- Assay type: ADME, organism-based
- Design: time infinity, dose 2.5 mg/kg, route subcutaneous
- condition: plasma
quantity: AUC(0-inf) (ng·h/mL)

INSERT INTO assay_data (smiles, quantity, recorded_result) VALUES
  ('Nc1nc(/C(=N/O)C(=O)N[C@@H]2C(=O)N3C(C(=O)O)=C(/C=C4\CCN([C@@H]5CCNC5)C4=O)CS[C@H]23)ns1', 'AUC(0-inf)', 2570);

----------
- protocol: Elimination clearance in neutropenic BALB/cAnNCr mouse infected with Staphylococcus aureus at 25 mg/kg, sc administered as single dose after 6 hrs of infection
- Format: ADME, organism-based
- Parameters: dose 25 mg/kg, route subcutaneous
- condition: in vivo
quantity: CL/F (mL/min/kg)

INSERT INTO assay_data (smiles, recorded_result) VALUES
  ('Nc1nc(/C(=N/O)C(=O)N[C@@H]2C(=O)N3C(C(=O)O)=C(/C=C4\CCN([C@@H]5CCNC5)C4=O)CS[C@H]23)ns1', 11.8);

----------
- protocol: Cmax in neutropenic BALB/cAnNCr mouse infected with Staphylococcus aureus at 2.5 mg/kg, sc administered as single dose after 6 hrs of infection
- Format: ADME, organism-based
- Design: dose 2.5 mg/kg, route subcutaneous
- condition: in vivo
quantity: Cmax (ng/mL)

INSERT INTO measurements (smiles, recorded_result) VALUES
  ('Nc1nc(/C(=N/O)C(=O)N[C@@H]2C(=O)N3C(C(=O)O)=C(/C=C4\CCN([C@@H]5CCNC5)C4=O)CS[C@H]23)ns1', 2910);

----------
- Tested on: Staphylococcus aureus
- protocol: Antimicrobial activity against hospital acquired methicillin-resistant Staphylococcus aureus 56 by broth microdilution method
- Assay type: functional
quantity: MIC (µg/mL)

INSERT INTO assay_data (smiles, unit_spec, recorded_result) VALUES
  ('C[C@H]1COc2c(N3CCN(C)CC3)c(F)cc3c(=O)c(C(=O)O)cn1c23.C[C@H]1COc2c(N3CCN(C)CC3)c(F)cc3c(=O)c(C(=O)O)cn1c23.O', 'µg/mL', 0.25),
  ('Nc1nc(/C(=N/O)C(=O)N[C@@H]2C(=O)N3C(C(=O)O)=C(/C=C4\CCN([C@@H]5CCNC5)C4=O)CS[C@H]23)ns1', 'µg/mL', 1),
  ('CCC[C@@H]1C[C@@H](C(=O)N[C@@H]([C@H]2O[C@H](SC)[C@H](O)[C@@H](O)[C@H]2O)[C@H](C)Cl)N(C)C1', 'µg/mL', 0.25),
  ('CC(=O)NC[C@H]1CN(c2ccc(N3CCOCC3)c(F)c2)C(=O)O1', 'µg/mL', 8),
  ('CC[C@H]1OC(=O)[C@H](C)[C@@H](O[C@H]2C[C@@](C)(OC)[C@@H](O)[C@H](C)O2)[C@H](C)[C@@H](O[C@@H]2O[C@H](C)C[C@H](N(C)C)[C@H]2O)[C@](C)(O)C[C@@H](C)C(=O)[C@H](C)[C@@H](O)[C@]1(C)O', 'µg/mL', 32),
  ('C[C@H]1c2cccc(O)c2C(=O)C2=C(O)[C@]3(O)C(=O)C(C(N)=O)=C(O)[C@@H](N(C)C)[C@@H]3[C@@H](O)[C@@H]21.O', 'µg/mL', 8);

----------
- protocol: Elimination clearance in neutropenic BALB/cAnNCr mouse infected with Staphylococcus aureus at 1 mg/kg, sc administered as single dose after 6 hrs of infection
- Format: ADME, organism-based
- Parameters: dose 1 mg/kg, route subcutaneous
- condition: in vivo
quantity: CL/F (L/h/kg)

INSERT INTO assay_data (smiles, quantity, recorded_result) VALUES
  ('Nc1nc(/C(=N/O)C(=O)N[C@@H]2C(=O)N3C(C(=O)O)=C(/C=C4\CCN([C@@H]5CCNC5)C4=O)CS[C@H]23)ns1', 'CL/F', 0.54);

----------
- Test system: Staphylococcus aureus
- protocol: Antimicrobial activity against methicillin-susceptible Staphylococcus aureus ATCC 25923 by broth microdilution method
- Type: functional
quantity: MIC (µg/mL)

INSERT INTO assay_data (smiles, target_under_test, quantity, recorded_result) VALUES
  ('CCC[C@@H]1C[C@@H](C(=O)N[C@@H]([C@H]2O[C@H](SC)[C@H](O)[C@@H](O)[C@H]2O)[C@H](C)Cl)N(C)C1', 'Staphylococcus aureus', 'MIC', 0.125),
  ('C[C@H]1c2cccc(O)c2C(=O)C2=C(O)[C@]3(O)C(=O)C(C(N)=O)=C(O)[C@@H](N(C)C)[C@@H]3[C@@H](O)[C@@H]21.O', 'Staphylococcus aureus', 'MIC', 0.25),
  ('C[C@H]1COc2c(N3CCN(C)CC3)c(F)cc3c(=O)c(C(=O)O)cn1c23.C[C@H]1COc2c(N3CCN(C)CC3)c(F)cc3c(=O)c(C(=O)O)cn1c23.O', 'Staphylococcus aureus', 'MIC', 0.25),
  ('Nc1nc(/C(=N/O)C(=O)N[C@@H]2C(=O)N3C(C(=O)O)=C(/C=C4\CCN([C@@H]5CCNC5)C4=O)CS[C@H]23)ns1', 'Staphylococcus aureus', 'MIC', 0.25),
  ('CC[C@H]1OC(=O)[C@H](C)[C@@H](O[C@H]2C[C@@](C)(OC)[C@@H](O)[C@H](C)O2)[C@H](C)[C@@H](O[C@@H]2O[C@H](C)C[C@H](N(C)C)[C@H]2O)[C@](C)(O)C[C@@H](C)C(=O)[C@H](C)[C@@H](O)[C@]1(C)O', 'Staphylococcus aureus', 'MIC', 0.5);

----------
Let's look at some compounds and their measured MIC.
- System: Staphylococcus aureus
- protocol: Antimicrobial activity against community acquired methicillin-resistant Staphylococcus aureus 147 by broth microdilution method
- Type: functional
quantity: MIC (µg/mL)

INSERT INTO measurements (compound, target_under_test, quantity, unit_spec, relation_qualifier, recorded_result) VALUES
  ('C[C@H]1c2cccc(O)c2C(=O)C2=C(O)[C@]3(O)C(=O)C(C(N)=O)=C(O)[C@@H](N(C)C)[C@@H]3[C@@H](O)[C@@H]21.O [DOXYCYCLINE]', 'Staphylococcus aureus', 'MIC', 'µg/mL', '=', 2),
  ('C[C@H]1COc2c(N3CCN(C)CC3)c(F)cc3c(=O)c(C(=O)O)cn1c23.C[C@H]1COc2c(N3CCN(C)CC3)c(F)cc3c(=O)c(C(=O)O)cn1c23.O [LEVOFLOXACIN]', 'Staphylococcus aureus', 'MIC', 'µg/mL', '=', 8),
  ('Nc1nc(/C(=N/O)C(=O)N[C@@H]2C(=O)N3C(C(=O)O)=C(/C=C4\CCN([C@@H]5CCNC5)C4=O)CS[C@H]23)ns1 [CEFTOBIPROLE]', 'Staphylococcus aureus', 'MIC', 'µg/mL', '=', 1),
  ('CCC[C@@H]1C[C@@H](C(=O)N[C@@H]([C@H]2O[C@H](SC)[C@H](O)[C@@H](O)[C@H]2O)[C@H](C)Cl)N(C)C1 [CLINDAMYCIN]', 'Staphylococcus aureus', 'MIC', 'µg/mL', '=', 0.125),
  ('CC[C@H]1OC(=O)[C@H](C)[C@@H](O[C@H]2C[C@@](C)(OC)[C@@H](O)[C@H](C)O2)[C@H](C)[C@@H](O[C@@H]2O[C@H](C)C[C@H](N(C)C)[C@H]2O)[C@](C)(O)C[C@@H](C)C(=O)[C@H](C)[C@@H](O)[C@]1(C)O [ERYTHROMYCIN]', 'Staphylococcus aureus', 'MIC', 'µg/mL', '>', 32);

----------
- protocol: Tmax in neutropenic BALB/cAnNCr mouse infected with Staphylococcus aureus at 2.5 mg/kg, sc administered as single dose after 6 hrs of infection
- Assay type: ADME, organism-based
- Parameters: dose 2.5 mg/kg, route subcutaneous
- condition: in vivo
quantity: Tmax

INSERT INTO results (smiles, quantity, recorded_result) VALUES
  ('Nc1nc(/C(=N/O)C(=O)N[C@@H]2C(=O)N3C(C(=O)O)=C(/C=C4\CCN([C@@H]5CCNC5)C4=O)CS[C@H]23)ns1', 'Tmax', '24.6 min');

----------
- protocol: Elimination clearance in neutropenic BALB/cAnNCr mouse infected with Staphylococcus aureus at 10 mg/kg, sc administered as single dose after 6 hrs of infection
- Type: ADME, organism-based
- Set-up: dose 10 mg/kg, route subcutaneous
- condition: in vivo
quantity: CL/F (mL/min/kg)

INSERT INTO assay_data (smiles, quantity, recorded_result) VALUES
  ('Nc1nc(/C(=N/O)C(=O)N[C@@H]2C(=O)N3C(C(=O)O)=C(/C=C4\CCN([C@@H]5CCNC5)C4=O)CS[C@H]23)ns1', 'CL/F', 10.5);
